The entries below are paired with their reported Potency.
assay system: Tyrosyl-DNA phosphodiesterase 1 (Homo sapiens) (UniProt Q9NUW8)
Sequence (Q9NUW8 whole entry, looked up): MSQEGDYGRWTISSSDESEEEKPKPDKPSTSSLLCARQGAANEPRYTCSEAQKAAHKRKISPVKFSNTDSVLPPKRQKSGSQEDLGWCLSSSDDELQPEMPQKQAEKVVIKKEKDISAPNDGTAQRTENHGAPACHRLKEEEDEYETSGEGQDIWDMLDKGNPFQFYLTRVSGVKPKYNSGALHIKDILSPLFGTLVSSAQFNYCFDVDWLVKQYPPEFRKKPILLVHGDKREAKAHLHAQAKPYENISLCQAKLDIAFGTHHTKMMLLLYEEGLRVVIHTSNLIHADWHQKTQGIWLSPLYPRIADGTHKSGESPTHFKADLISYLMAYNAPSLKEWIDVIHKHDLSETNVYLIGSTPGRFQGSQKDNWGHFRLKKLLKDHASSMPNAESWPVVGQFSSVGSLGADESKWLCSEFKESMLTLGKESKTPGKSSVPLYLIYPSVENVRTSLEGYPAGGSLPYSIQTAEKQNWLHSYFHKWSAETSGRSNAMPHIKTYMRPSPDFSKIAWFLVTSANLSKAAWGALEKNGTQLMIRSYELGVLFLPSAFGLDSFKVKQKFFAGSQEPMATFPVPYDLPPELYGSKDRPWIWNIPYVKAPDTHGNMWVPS
test summary: Confirmation Assay for Inhibitors of Tyrosyl-DNA Phosphodiesterase (TDP1) (AID 489007); also: potency is read from the fitted curve at half-maximal effect; nearly all actives have a fitted effect of over 40% in size
assay setup: recombinant human TDP1 enzymatic activity, dose-response
Records with an inconclusive call do not appear. Active and inactive are the calls of the source. Calls follow the shape of the dose curve; as a rule, active = well fitted inhibition curve with a large enough effect; inconclusive = small, poorly fitted or top-dose-only effect; inactive = flat fitted curve, though single readings scatter.

Query: Tell us which Potency value is on record for `CCCCCc1nnc(NC(=O)Cc2cccs2)s1`
Reply: 25.1 µM (active)

Query: Tell us which Potency value is on record for `Cc1nc(SCC(=O)O)c(C#N)c2c1CCCC2`
Reply: 8.91 µM (active)

Now let's try a different one.
Query: Tell us which Potency value is on record for `Nc1ccc(Nc2ccccc2)c(S(=O)(=O)O)c1`
Reply: 7.94 µM (active)

---

Tested on: CP250
test summary: qHTS profiling for inhibitors of Plasmodium falciparum proliferation (AID 504749); also: nearly all actives have a fitted effect of over 60% in size; also: potency is read from the fitted curve at half-maximal effect
assay setup: P. falciparum in erythrocytes, SYBR Green DNA, 72 h; series mostly up to 28.7 µM
Inconclusive results are not listed. Calls of active or inactive are those of the source. Calls follow the shape of the dose curve; as a rule, active = well fitted inhibition curve with a large enough effect; inconclusive = small, poorly fitted or top-dose-only effect; inactive = flat fitted curve, though single readings scatter.
readout: Potency

Example entries begin here.
Query: Tell us which Potency value is on record for O=c1ccn(C2OC(COP(=O)(O)OC3C(CO)OC(n4ccc(=O)[nH]c4=O)C3O)C(O)C2O)c(=O)[nH]1 (stereo not given)
Reply: inactive

Query: Tell us which Potency value is on record for CC(C)C(=O)OCC(=O)[C@@]12OC(C3CCCCC3)O[C@@H]1CC1C3CCC4=CC(=O)C=C[C@]4(C)C3[C@@H](O)C[C@@]12C (stereo not given in full)
Reply: 1120 nM (active)

Query: Tell us which Potency value is on record for C=C1CC2C3C=C(C)C4=CC(=O)CCC4(C)C3CCC2(C)[C@@]1(OC(C)=O)C(C)=O (stereo not given in full)
Reply: inactive

Query: Tell us which Potency value is on record for Cc1ccc(S(=O)(=O)NC(=O)NC(C)Cc2ccccc2)cc1 (stereo not given)
Reply: inactive

Query: Tell us which Potency value is on record for `CC[C@]1([C@H]2O[C@@H]([C@@H]3O[C@](O)(CO)[C@@H](C)C[C@H]3C)C[C@H]2C)CC[C@@H]([C@]2(C)CC[C@@]3(C[C@@H](O)[C@@H](C)[C@@H]([C@H](C)[C@H](OC)[C@H](C)C(=O)O)O3)O2)O1`
Reply: 39.8 nM (active)

***
Query: Tell us which Potency value is on record for O=C(O)CC(O)CC(O)/C=C/c1c(C2CC2)nc2ccccc2c1-c1ccc(F)cc1 (stereo not given)
Reply: inactive

Query: Tell us which Potency value is on record for `CCCCC/C(C=O)=C/c1ccccc1`
Reply: inactive

Query: Tell us which Potency value is on record for `CO/N=C(/C(=O)N[C@@H]1C(=O)N2C(C(=O)O)=C(CSc3nc(C)c(CC(=O)O)s3)CS[C@H]12)c1csc(N)n1`
Reply: inactive

Query: Tell us which Potency value is on record for CC1OC(OC2C(O)CC(OC3C(O)CC(OC4CCC5(C)C(CCC6C5CCC5(C)C(C7=CC(=O)OC7)CCC65O)C4)OC3C)OC2C)CC(O)C1O (stereo not given)
Reply: inactive

Query: Tell us which Potency value is on record for `CC[C@@]1(O)C[C@H](O[C@H]2C[C@@H](N(C)C)[C@@H](O[C@H]3C[C@@H](O)[C@@H](O[C@H]4CCC(=O)[C@@H](C)O4)[C@@H](C)O3)[C@@H](C)O2)c2c(cc3c(c2O)C(=O)c2c(O)cccc2C3=O)[C@H]1C(=O)OC`
Reply: 251 nM (active)
